- studySystem: PRMT5/MEP50 (Homo sapiens)
- Construct: Expressed full-length human Flag-PRMT5/6His-MeP50 protein complex was purified; made in house; host or cells: Spodoptera frugiperda (SF9) insect cells, baculovirus (pDEST8)
- Sequence (O14744 with tags, fused parts or gaps): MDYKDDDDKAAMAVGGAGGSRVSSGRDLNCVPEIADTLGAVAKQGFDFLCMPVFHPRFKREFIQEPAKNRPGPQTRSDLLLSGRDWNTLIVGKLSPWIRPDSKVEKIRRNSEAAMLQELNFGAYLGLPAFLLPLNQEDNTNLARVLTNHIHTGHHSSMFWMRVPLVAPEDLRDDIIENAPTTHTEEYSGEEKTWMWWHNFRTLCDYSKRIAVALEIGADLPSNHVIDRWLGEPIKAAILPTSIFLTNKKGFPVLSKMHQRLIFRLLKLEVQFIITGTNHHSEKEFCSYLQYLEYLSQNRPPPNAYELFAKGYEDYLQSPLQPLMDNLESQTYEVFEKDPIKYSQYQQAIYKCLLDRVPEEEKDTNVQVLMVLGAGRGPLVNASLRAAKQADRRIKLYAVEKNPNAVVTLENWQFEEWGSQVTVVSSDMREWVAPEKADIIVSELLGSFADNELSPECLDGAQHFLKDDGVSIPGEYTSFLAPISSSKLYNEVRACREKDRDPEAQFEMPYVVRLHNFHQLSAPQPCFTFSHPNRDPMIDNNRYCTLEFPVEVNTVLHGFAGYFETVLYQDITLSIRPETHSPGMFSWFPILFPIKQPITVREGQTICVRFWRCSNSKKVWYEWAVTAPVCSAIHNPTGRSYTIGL
- Sequence (Q9BQA1 with tags, fused parts or gaps partner limits assumed): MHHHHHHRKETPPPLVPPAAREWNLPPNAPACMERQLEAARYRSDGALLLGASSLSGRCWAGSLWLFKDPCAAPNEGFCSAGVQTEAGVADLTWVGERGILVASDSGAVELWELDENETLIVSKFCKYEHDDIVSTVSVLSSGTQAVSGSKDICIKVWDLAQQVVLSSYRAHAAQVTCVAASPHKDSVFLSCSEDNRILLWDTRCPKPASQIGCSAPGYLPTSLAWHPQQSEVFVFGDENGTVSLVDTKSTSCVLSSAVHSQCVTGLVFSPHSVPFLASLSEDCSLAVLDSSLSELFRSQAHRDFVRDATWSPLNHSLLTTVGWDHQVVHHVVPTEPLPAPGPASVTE
- testDetails: PRMT5 Biochemical Assay (PRMT5/MEP50 enzyme assay on peptide substrate, 3H-SAM Flashplate)
- particulars: Table B-2; PRMT5/MEP50 4 nM, 3H-SAM 75 nM, peptide 40 nM; read-out: Biochemical IC50
The following compounds are listed with their measured IC50 values.

Recorded results for 5 compounds are shown here.
CS(=O)(=O)Nc1ccc(C(=O)NCC(O)CN2CCc3ccccc3C2)cc1 (stereo not drawn)
101 to 1000 nM
CN1CCN(Cc2cccc(C(=O)NCC(O)CN3CCc4ccccc4C3)c2)CC1 (stereo not drawn)
< 100 nM
NC(=O)c1ccc(C(=O)NCC(O)CN2CCc3ccccc3C2)cc1 (stereo not drawn)
101 to 1000 nM
CC(=O)Nc1cccc(C(=O)NCC(O)CN2CCc3ccccc3C2)c1 (stereo not drawn)
101 to 1000 nM
O=C(NCC(O)CN1CCc2ccccc2C1)c1cccc(-c2cc[nH]n2)c1 (stereo not drawn)
< 100 nM

Please look at the following compound next.
Challenge: Which measured IC50 value corresponds to CCN(c1cccc(C(=O)NCC(O)CN2CCc3ccccc3C2)c1C)C1CCOCC1 (stereo not drawn) ?
Response given: < 100 nM
